Please provide measured GI50 for the entries that follow.
Test system: HT-29
assay.procedure: NCI tumour cell line growth inhibition, 48 h
Activity calls are given as the source filed them. Rule as the data show it: active = GI50 up to about 1.1 µM and inactive = higher.

Q: Need GI50, item S=C(N/N=C/c1ccccc1)NC1CC(c2ccccc2)Oc2ccccc21 (stereo unspecified)
Ans: 53 µM (inactive)

Q: Entry NC(=O)C(N)CC12CC3CC(CC(C3)C1)C2 (stereo unspecified) has what GI50?
Ans: 28.1 µM (inactive)

Q: Can you share its GI50? I mean this molecule: O=C1CSC(c2cccs2)N1c1nc2cc3sc(N4C(=O)CSC4c4cccs4)nc3cc2s1 (stereo unspecified)
Ans: 11.9 µM (inactive)

Q: Request the reported GI50 associated with `Cc1ccc(C(=O)/C=C2\Nc3cccnc3NC2=O)cc1`
Ans: > 100 µM (inactive)

Q: What value of GI50 has been recorded for this entry: `O=C1C(CO)=C[C@H](O)[C@H]2O[C@@H]12`
Ans: 260 µM (inactive)

Q: GI50 for `CCOc1ccc(/C=C2\N=C(c3ccc([N+](=O)[O-])cc3)OC2=O)cc1` ?
Ans: > 100 µM (inactive)

Q: Recorded GI50 of `O=c1oc2ccccc2c(-c2ccc(O)cc2)c1Oc1ccc(Cl)cc1` , please.
Ans: 20.1 µM (inactive)

Q: For the molecule O=C1CS(=O)(=O)C(c2cccc(Oc3ccccc3)c2)N1c1cccc(Cl)c1 (stereo unspecified) , what GI50 is on record?
Ans: 28.6 µM (inactive)

Q: Given the molecule CCCCOP1(=O)CC(C)=C(Cl)C(C)(OC)C1 (stereo unspecified) , what is its reported GI50?
Ans: > 100 µM (inactive)

Q: Need GI50, item `O=C(CSc1nc2ccc(I)cc2c(=O)n1Cc1ccccc1)Nc1ccccc1`
Ans: > 100 µM (inactive)

Q: What does the record list as GI50 for CCCN1C(=O)CC(C)N(Cc2ccccc2Cl)C1=S (stereo unspecified) ?
Ans: 37.9 µM (inactive)
